Origin of the recorded values: the supplement of paper PMC6555819

system: LXRb:RXRa (NR concentration 270 nM, RXRa partner concentration 90 nM); assay: PBM binding z-score (relative to random genomic background probes); higher = stronger binding; sequences stand for … in GC…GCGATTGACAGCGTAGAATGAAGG
Examples of sequences with documented PBM binding z-score follow.
Number, no unit, nothing else.

Recorded PBM binding z-score, per entry:
INSERT INTO assay_data (seq, recorded_value) VALUES
  ('TCTTGTAGATCAACAGGAGGTTATGAAAGATCGA', 0.914),
  ('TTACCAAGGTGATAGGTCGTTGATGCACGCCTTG', 0.514),
  ('CGTCCAAGGTCAGCAGGTAAGTGAAAGCGACGTG', 2.36),
  ('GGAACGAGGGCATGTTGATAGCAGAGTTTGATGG', 0.12),
  ('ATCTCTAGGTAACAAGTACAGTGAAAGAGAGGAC', -0.0374);

Now consider the entry below.
QUERY: For the sequence CCTACGGGGCCATTCAGAGGTCATTGATCATATG , what PBM binding z-score is on record?
RESULT: 4.17
